- protocol: NCI Yeast Anticancer Drug Screen. Data for the bub3 strain (AID 167)
- run.conditions: S. cerevisiae bub3 mutant strain, at 5.0 µM (retest, dose inferred, filed as 0.5), hits give high values
The panel holds about 79,000 compounds, 15% with a hit somewhere; the sample as a whole holds those more often.
Items are presented alongside their recorded growth inhibition.
Record the value in %, omitting the unit from your answer.

Observe how each entry below is paired with its result.
                                   molecule      quantity_name  unit_of_measure  test_result
0  C[C@]12CCC3[C@@H](CC[C@@H]4c5nonc5CC[C@]34C)C1CCC(=O)N2 (stereo partly drawn)  growth inhibition                %            6
1                    Oc1c(I)cc(Cl)c2cccnc12  growth inhibition                %           39
2  CCCCCCCCCCCC1C(C#N)C(=O)NC(=O)C1C#N (stereo not drawn)  growth inhibition                %           78
3  COc1cc2c(c(OC)c1OC)-c1ccc(SC)c(=O)cc1[C@@H](NC1OC(COC(C)=O)C(OC(C)=O)C(OC(C)=O)C1OC(C)=O)CC2 (stereo partly drawn)  growth inhibition                %            0
4           CCOC(=O)NCCCc1ccc2oc3ccccc3c2c1  growth inhibition                %            9
5              O=C(Nc1ccccc1)c1ccc(Cl)cc1Cl  growth inhibition                %            4

For CCCCCCCCCCCC(=O)OCC1OC(n2cc(F)c(=O)[nH]c2=O)C(N)C(O)C1O (stereo not drawn) the molecule record lists growth inhibition as -11

For O=C(Nc1ccc(F)cc1)ON=C1CCCCC1 the molecule record lists growth inhibition as 45

* * *

Items are presented alongside their recorded growth inhibition.
- protocol: NCI Yeast Anticancer Drug Screen. Data for the sgs1 mgt1 strain (AID 161);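 also: 0% = growth of cultures given vehicle only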
- run.conditions: S. cerevisiae sgs1 mgt1 strain, at 5.0 µM (retest, dose inferred, filed as 0.5), hits give high values
Compounds without any hit were thinned out: in the full panel of roughly 79,000, 15% have a hit.
Record the value in %, omitting the unit from your answer.

Observe how each entry below is paired with its result.
>>> df
                                   compound      quantity_name  test_result
0           Cc1ccc(S(=O)(=O)Nc2ccccc2Cl)cc1  growth inhibition            7
1  Cc1ccc(C)c(NC(=O)CC2SC(=Nc3ccccc3Cl)NC2=O)c1 (stereo not given)  growth inhibition           25
2  Cc1[nH]c2ccccc2c1/C=C1\C(=O)C2CCC1C2 (stereo not given)  growth inhibition           -6
3           O=C1NC(=O)/C(=C/C=C/c2ccccc2)S1  growth inhibition           25

Shifting focus to the compound that follows.
For COc1cc(OC)cc(C2OC3=C(Nc4ccc([N+](=O)[O-])cc4N3)C2=O)c1 (stereo not given) the compound record lists growth inhibition as 30

* * *

- protocol: NCI Yeast Anticancer Drug Screen. Data for the mec2-1 strain (AID 157)
- run.conditions: S. cerevisiae mec2-1 strain, at 5.0 µM (retest, dose inferred, filed as 0.5), hits give high values
- Experimental: Growth inhibition of yeast strains with defined genetic alterations is measured as a screen for potential anti-cancer activity. Selected strains with alterations in DNA damage repair or cell cycle control were exposed to compounds and growth inhibition was measured relative to vehicle treated controls. The strain used in this assay is mec2-1
About 79,000 compounds went through this panel and 15% of them were active in at least one assay; those are over-represented in the sample as a whole.
quantity.name: growth inhibition (%)
Record the value in %, omitting the unit from your answer.

                                   molecule  unit_of_measure  test_result
0  Cn1c2c(c3ccccc31)CCN1C[C@@H]3CCCC[C@H]3C[C@@H]21                %            0

For CN1c2ccccc2C(C)(C)C12C=Cc1cc(O)ccc1O2 (centres undefined) the molecule record lists growth inhibition as 9

For CCOC(=O)/C=C(\C)Sc1cc(O)c2ccccc2c1O the molecule record lists growth inhibition as -1

For O=Cc1cc(O)ccc1Br the molecule record lists growth inhibition as 28
